Test system: RARa:RXR (NR concentration 270 nM, RXRa partner concentration 90 nM)
assay info: PBM binding z-score (relative to random genomic background probes); higher = stronger binding; sequences stand for … in GC…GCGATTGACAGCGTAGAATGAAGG
Each entry gets class 0 if its PBM binding z-score stays under 0.9, and class 1 if its PBM binding z-score is 0.9 or above.

Some entries whose results are on file:
>>> classification("TCTATTAGTTGAATGGCAACCGACGAGTCCGTTT")
"class 0"
>>> classification("CCTGCTAGGTCATGGTCGGCTAATCTACAGTATG")
"class 1"
>>> classification("CGAACGAGGGCATGAGTTGCTAGCAAATGCCGAT")
"class 0"
>>> classification("TAGCCCAGGTCATTGGGCCAGTATAGTACGCATC")
"class 1"
>>> classification("CAAACTAGGTCACCGGAAGGGCAAAGTCCGCATG")
"class 1"
>>> classification("TCTTGTAGATCAATAGAGGTTAATAAAGTGCGCT")
"class 1"

## Input State whether the measured PBM binding z-score reaches 0.9, counting equality as reaching it, for CGTCAAAGTTCAACTAAGGTAACATAAAGCACGC
## Output class 1

## Input State whether the measured PBM binding z-score reaches 0.9, counting equality as reaching it, for CCTCGGAGGACAGAAGGTCAGAGATGTCCGCTTT
## Output class 1

## Input State whether the measured PBM binding z-score reaches 0.9, counting equality as reaching it, for ATATGTAGGTTAGATCCGGGTCATTCAGGCTATG
## Output class 1

## Input State whether the measured PBM binding z-score reaches 0.9, counting equality as reaching it, for TCTGCTAGGTCAGTTGGTCAACTAACGAGCTGCC
## Output class 0

----------
Tested on: FXR:RXRa (NR concentration 270 nM, RXRa partner concentration 90 nM)
assay info: PBM binding z-score (relative to random genomic background probes); higher = stronger binding; sequences stand for … in GC…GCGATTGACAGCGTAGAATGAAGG
Each entry gets Not met if its PBM binding z-score stays under 1, and Met if its PBM binding z-score is 1 or above.

Some entries whose results are on file:
>>> classification("TGTCAAAGATCAAAGGTAACGTAAGTATCCACAC")
"Met"
>>> classification("ATATGTAGGTTACATCCGCGTCATTCAGGCTATG")
"Not met"
>>> classification("CAAACTAGATCACAGAGGTCAAAGTCCGTGCGTA")
"Met"
>>> classification("CCAACTGGGCCAAAGGTCATTGATTCCAATGCTC")
"Met"
>>> classification("GCAGACAGGTGAAGCGCAGGTAACTCAGGGTGGC")
"Not met"

## Input State whether the measured PBM binding z-score reaches 1, counting equality as reaching it, for CGAACTAGCTCATTGACAGGACAGTGAATAGTAA
## Output Not met

## Input State whether the measured PBM binding z-score reaches 1, counting equality as reaching it, for ACTATTAGTTGACTTAGGGCAAACGATACGACGC
## Output Not met

----------
Tested on: PPARg:RXRa (NR concentration 180 nM, RXRa partner concentration 90 nM)
assay info: PBM binding z-score (relative to random genomic background probes); higher = stronger binding; sequences stand for … in GC…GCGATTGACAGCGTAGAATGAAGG
Each entry gets No if its PBM binding z-score stays under 2, and Yes if its PBM binding z-score is 2 or above.

>>> classification("ATCTCTATGTAAAGATAGTTCAGTGAATGCAAAT")
"No"
>>> classification("TGAATGAGGTTATAAGGTCAGGGAACGTTGCAAA")
"Yes"
>>> classification("CGTCCAAGGTCAAGGTCAGGGAAAGAGACTCGAA")
"Yes"

## Input State whether the measured PBM binding z-score reaches 2, counting equality as reaching it, for GCATATAGGTACTACAAGGTGAAAGTCCGATTGT
## Output No

## Input State whether the measured PBM binding z-score reaches 2, counting equality as reaching it, for TCATATAGGTAAACAGGTGAAAGTACGTAAGTTA
## Output Yes

## Input State whether the measured PBM binding z-score reaches 2, counting equality as reaching it, for TACCCTAGGTCATGCGGGCCAGTATAGTGTCGGC
## Output Yes

## Input State whether the measured PBM binding z-score reaches 2, counting equality as reaching it, for TCTATTAGCTGAAGGGCAACCGACGAGTCCGTTT
## Output No

## Input State whether the measured PBM binding z-score reaches 2, counting equality as reaching it, for ATCGAAAGGTTGAGGTGAGTATAGAGAAAGGGAA
## Output No

## Input State whether the measured PBM binding z-score reaches 2, counting equality as reaching it, for CCGACTGGGGCAAGGTTTCCATAACGCACAGCCA
## Output Yes

----------
Each record here notes measured PBM binding z-score.
Test system: PPARa:RXRa (NR concentration 270 nM, RXRa partner concentration 90 nM)
assay info: PBM binding z-score (relative to random genomic background probes); higher = stronger binding; sequences stand for … in GC…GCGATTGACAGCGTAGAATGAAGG

Worked cases, answers included:
>>> reported_result("TTACCAAGGTGAAAGTTCGTTGATGCACGCCTTG")
4.14
>>> reported_result("CAAACTAGTTCACAGAGGTCAAAGTCCGTGCGTA")
5.3
>>> reported_result("CCTAGTTGGTGAGGAGGTCACACACCGGATATGA")
3.86
>>> reported_result("TGTCGGAGGACACGAAGGTCAGAGCTTTCCAGAG")
1.81
>>> reported_result("CCTACTGGGCCAAGTTCATTGATCAGTCAAAGCA")
1.83

## Input Find PBM binding z-score (PPARa:RXRa (NR concentration 270 nM, RXRa partner concentration 90 nM)) for the entry CGTCCAAGGTAATAGGAGGTCAGTGAAGACAGAT
## Output 2.14

## Input Find PBM binding z-score (PPARa:RXRa (NR concentration 270 nM, RXRa partner concentration 90 nM)) for the entry CAAATTAGGTCACAGAGGTCAAAGTCCGTGCGTA
## Output 6.44

## Input Find PBM binding z-score (PPARa:RXRa (NR concentration 270 nM, RXRa partner concentration 90 nM)) for the entry GGACCGAGGGCAAGTTGATAGCAGAGTTTGATGG
## Output 0.868

## Input Find PBM binding z-score (PPARa:RXRa (NR concentration 270 nM, RXRa partner concentration 90 nM)) for the entry TAGCATAGGTCAGATCGGGCCAGTATACGCTATA
## Output 3.38

## Input Find PBM binding z-score (PPARa:RXRa (NR concentration 270 nM, RXRa partner concentration 90 nM)) for the entry TCTTGTAGATCAACAGGAGGTTAAGAGAGATCGA
## Output 1.3

## Input Find PBM binding z-score (PPARa:RXRa (NR concentration 270 nM, RXRa partner concentration 90 nM)) for the entry CCTACTGGGCCATCAGGTCCTTGATATCAACGTT
## Output 0.449

## Input Find PBM binding z-score (PPARa:RXRa (NR concentration 270 nM, RXRa partner concentration 90 nM)) for the entry CCTTACGGGTGAAGGTTATAGCACGGGTGGTACG
## Output 1.61

----------
System: PPARg homodimer (NR concentration 180 nM)
assay info: PBM binding z-score (relative to random genomic background probes); higher = stronger binding; sequences stand for … in GC…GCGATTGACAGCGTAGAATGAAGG
Each entry gets class 0 if its PBM binding z-score stays under 2, and class 1 if its PBM binding z-score is 2 or above.

>>> classification("CCAGCTAGGTCAATGGTCAGCTAAAGCAGCTCGC")
"class 0"
>>> classification("CCTGCTAGGTCAATGGTCAGCCAAAGCAGCTCGC")
"class 0"
>>> classification("GCTGGTTGGTCAGTAAAAGGTCACACACCGGTCG")
"class 1"
>>> classification("ATCGAAAGGTGGAGGTGAGTATAGAGAAAGGGAA")
"class 0"
>>> classification("AGATGTAGGTTAGCTGGGGTCATTCAGACTAGGC")
"class 1"
>>> classification("CCTCGGAGGACAGAAGGTCAGTGCTGTCCGCTTT")
"class 0"
>>> classification("TCTGCTAGGTCAACGATGGTCATCTAATCTGCTA")
"class 0"
>>> classification("CCTACTGGGCCAAGGTCATTAATCAGTCAAAGCA")
"class 1"
>>> classification("TCTCGGAGGCCACGAAGGTCAGAGCTTTCCAGAG")
"class 0"
>>> classification("CGTCCAAGGTCAGAGAGGTCAGTAAATGCCGAGT")
"class 1"

## Input State whether the measured PBM binding z-score reaches 2, counting equality as reaching it, for CAAACTAGGTCACGAAAGGTAAAAGTCGAATGAC
## Output class 1
